- Species: Felis catus
- procedure.summary: Response ratio = (percent increase to drug)/(percent increase to 10 E-4 M isoproterenol)
- Format: functional
measured.endpoint: Response ratio
Answer as a number with no unit attached.

Look up Response ratio for this compound: COc1ccc(-c2nc3cc[nH]cc-3n2)c(OC)c1
1

For COc1ccc(-c2nc3cc[nH]cc-3n2)c(OCC[S+](C)[O-])c1 (stereo not given) , what is its reported Response ratio?
1.19

Look at this compound and give its reported Response ratio. COc1cc(F)ccc1-c1nc2cc[nH]cc-2n1
0.58

I have this compound here, Cc1ccc(-c2nc3cc[nH]cc-3n2)cc1C , and I need its recorded Response ratio.
1.75

# lookup: Response ratio of CCOc1cc([S+](C)[O-])ccc1-c1nc2cc[nH]cc-2n1 (stereo not given)
2.25

Data request, read-out Response ratio, for COc1cc([N+](=O)[O-])ccc1-c1nc2cc[nH]cc-2n1
0.61

Entry under review: COc1cc(SC)ccc1-c1nc2c[nH]cnc-2n1 . Reported Response ratio?
0.43

GET /values?readout=Response ratio&item= COc1cc(I)ccc1-c1nc2cc[nH]cc-2n1
0.82

Quick check: Response ratio of CSc1ccc(-c2nc3cc[nH]cc-3n2)c(SC)c1 ?
0.84

Looking for the measured Response ratio of COc1cc(OC)c(-c2nc3cc[nH]cc-3n2)c(OC)c1 , can you help?
0.51

Record request: Response ratio value, item CCCCOc1cc(OC)ccc1-c1nc2cc[nH]cc-2n1
0.55

# get_value(readout='Response ratio', item= COc1cc([S+](C)[O-])ccc1-c1nc2c[nH]cnc-2n1 (stereo not given) )
0.58

Please look up its Response ratio: CCOc1cc(OC)ccc1-c1nc2cc[nH]cc-2n1
0.41

// Response ratio lookup, key: COc1cccc(-c2nc3cc[nH]cc-3n2)c1OC
-0.14

# query: Response ratio of entry CN(C)c1ccc(-c2nc3cc[nH]cc-3n2)cc1
1.04

Find the recorded Response ratio belonging to COc1ccc(-c2nc3cc[nH]cc-3n2)cc1 and report it.
1.46

For the compound shown here, COc1ccc(-c2nc3cc[nH]cc-3n2)c(OCCSC)c1 , give the reported Response ratio.
0.55

So what does the record say about Response ratio for COc1cc(Br)ccc1-c1nc2cc[nH]cc-2n1 ?
1.04

What does the data say about its Response ratio? Entry: COc1ccc(-c2nc3ccc[nH]c-3n2)c(OC)c1
2.27

Need Response ratio, item c1ccc(Sc2ccc(-c3nc4cc[nH]cc-4n3)cc2)cc1
0.33

Consider the compound COc1cc([S+](C)[O-])ccc1-c1nc2cnccc2[nH]1 (stereo not given) and give its measured Response ratio.
2.33

Entry Clc1ccc(-c2nc3cc[nH]cc-3n2)c(Cl)c1 : reported Response ratio = ?
0.99

Quick one: Response ratio of Cc1ccc(-c2nc3cc[nH]cc-3n2)c(C)c1 ?
0

Please look up its Response ratio: COc1cc(OCc2ccccc2)ccc1-c1nc2cc[nH]cc-2n1
0.07

# input compound: COc1ccc(-c2nc3ccc[nH]c-3n2)cc1OC ; wanted: its Response ratio
0.22

Response ratio lookup needed for Fc1cccc(-c2nc3cc[nH]cc-3n2)c1 , thanks.
0.79

Which Response ratio is reported for this compound? c1ccc(-c2nc3cc[nH]cc-3n2)cc1
1.97

Please report the recorded Response ratio for CCCSc1ccc(-c2nc3cc[nH]cc-3n2)c(OC)c1 .
0.54

// returns reported Response ratio for input COc1cc(OC)cc(-c2nc3cc[nH]cc-3n2)c1
1.1

# Response ratio lookup, item COc1cc(-c2nc3cc[nH]cc-3n2)cc(OC)c1OC
0.71

Return reported Response ratio; argument: CCCOc1cc(OC)ccc1-c1nc2cc[nH]cc-2n1
3.27

What does the record list as Response ratio for COc1cc(SC)ccc1-c1nc2cc[nH]cc-2n1 ?
0.59

GET /values?readout=Response ratio&item= COc1ccccc1-c1nc2cc[nH]cc-2n1
1.38

Could you share which Response ratio value was measured for COc1cc(S(C)(=O)=O)ccc1-c1nc2ccc[nH]c-2n1 ?
0.4

I am curious: what Response ratio value has been reported for COc1ccc(-c2nc3cccnc3[nH]2)cc1 ?
1.01

// Response ratio lookup, key: COc1cc(C(F)(F)F)ccc1-c1nc2cc[nH]cc-2n1
0.49

Given CCCCCOc1cc(OC)ccc1-c1nc2cc[nH]cc-2n1 , state its recorded Response ratio.
-0.26

Suppose we examine the compound CSc1ccc(-c2nc3cc[nH]cc-3n2)cc1 ; what Response ratio value has been reported?
1.55

Request the reported Response ratio associated with Cc1ccccc1-c1nc2cc[nH]cc-2n1
1.22

Which value of Response ratio has been reported for CS(=O)(=O)c1ccc(-c2nc3cc[nH]cc-3n2)cc1 in the records?
0.51
